# subjectOfTest: T1, human ENTPD2 expressed on cells (human, UniProt Q9Y5L3 1-495)
# T1 construct: full-length human ENTPD2 on engineered cells; also called NIH3T3 humanENTPD2; NIH/3T3-hENTPD2
# T1 sequence: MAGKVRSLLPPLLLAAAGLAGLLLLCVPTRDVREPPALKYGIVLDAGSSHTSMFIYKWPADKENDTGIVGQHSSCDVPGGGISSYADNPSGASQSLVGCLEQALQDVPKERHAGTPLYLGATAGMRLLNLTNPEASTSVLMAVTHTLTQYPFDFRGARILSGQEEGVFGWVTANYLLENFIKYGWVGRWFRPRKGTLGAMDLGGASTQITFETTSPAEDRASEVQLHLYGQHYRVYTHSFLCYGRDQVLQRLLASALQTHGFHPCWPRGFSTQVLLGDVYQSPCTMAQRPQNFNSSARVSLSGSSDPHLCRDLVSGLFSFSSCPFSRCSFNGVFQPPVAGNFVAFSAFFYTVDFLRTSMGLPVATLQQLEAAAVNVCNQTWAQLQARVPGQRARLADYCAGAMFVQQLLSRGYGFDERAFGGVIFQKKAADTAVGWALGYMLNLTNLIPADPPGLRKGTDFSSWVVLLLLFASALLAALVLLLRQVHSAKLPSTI
# methodDescription: flow cytometry, NIH3T3 human ENTPD2 cells
readout: EC50
Note: a bare number is incomplete; add the unit.

# binder, EC50
rows = [
    ("ANTI-HUMAN ENTPD2 MAB10 (antibody, human IgG1, lambda, V domains shown, also called Anti-ENTPD2 mAb10) VH: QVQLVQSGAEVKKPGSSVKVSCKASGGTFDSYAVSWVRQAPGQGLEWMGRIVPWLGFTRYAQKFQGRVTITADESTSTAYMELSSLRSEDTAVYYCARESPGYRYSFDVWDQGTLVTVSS VL: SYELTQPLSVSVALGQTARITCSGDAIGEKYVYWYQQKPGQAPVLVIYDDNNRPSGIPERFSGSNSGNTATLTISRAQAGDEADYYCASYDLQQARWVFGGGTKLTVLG", "0.8 nM"),
]

Proceed to the following item.
// query Sample ANTI-HUMAN ENTPD2 MAB6 (antibody, human IgG1, kappa, V domains shown, humanized and optimized from mAb16; human IgG1, kappa; also called Anti-ENTPD2 mAb6) VH: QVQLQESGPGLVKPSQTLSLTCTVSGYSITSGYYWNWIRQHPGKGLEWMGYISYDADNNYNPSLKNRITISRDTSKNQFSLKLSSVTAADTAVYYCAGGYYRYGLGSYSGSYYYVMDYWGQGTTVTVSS VL: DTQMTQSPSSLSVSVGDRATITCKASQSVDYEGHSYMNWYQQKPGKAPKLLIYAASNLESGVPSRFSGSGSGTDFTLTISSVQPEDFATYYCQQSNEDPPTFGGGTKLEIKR — what was its EC50?
// result 0.9 nM
